Source: ChEMBL document CHEMBL1649119

# testMethodNotes: Drug excretion in old healthy human urine assessed as unchanged drug at 4 mg/kg, iv administered as single dose 30 mins infusion
# Assay type: ADME, organism-based
# Design: dose 4 mg/kg, route intravenous
# details: read-out: Drug uptake
readoutName: dose excreted at 0.5 h (%)
# unit: % | format: bare number

QUERY: I would be grateful if you could share the reported dose excreted at 0.5 h for CCCCCCCCCC(=O)N[C@@H](Cc1c[nH]c2ccccc12)C(=O)N[C@H](CC(N)=O)C(=O)N[C@@H](CC(=O)O)C(=O)N[C@@H]1C(=O)NCC(=O)N[C@@H](CCCN)C(=O)N[C@@H](CC(=O)O)C(=O)N[C@H](C)C(=O)N[C@@H](CC(=O)O)C(=O)NCC(=O)N[C@H](CO)C(=O)N[C@@H]([C@H](C)CC(=O)O)C(=O)N[C@@H](CC(=O)c2ccccc2N)C(=O)O[C@@H]1C .
RESULT: 34.3

====

# testMethodNotes: AUC (0 to infinity) in healthy human at 8 mg/kg, iv administered as 30 mins infusion every 24 hrs measured on day 1
# Format: ADME, organism-based
# Set-up: time infinity, dose 8 mg/kg, route intravenous
# details: plasma
readoutName: AUC(0-inf)
Please answer using the number first and the unit second.

QUERY: Would you kindly share the measured AUC(0-inf) for CCCCCCCCCC(=O)N[C@@H](Cc1c[nH]c2ccccc12)C(=O)N[C@H](CC(N)=O)C(=O)N[C@@H](CC(=O)O)C(=O)N[C@@H]1C(=O)NCC(=O)N[C@@H](CCCN)C(=O)N[C@@H](CC(=O)O)C(=O)N[C@H](C)C(=O)N[C@@H](CC(=O)O)C(=O)NCC(=O)N[C@H](CO)C(=O)N[C@@H]([C@H](C)CC(=O)O)C(=O)N[C@@H](CC(=O)c2ccccc2N)C(=O)O[C@@H]1C ?
RESULT: 1130 µg·h/mL

====

# testMethodNotes: Cmax in adult human subjects at 6 mg/kg, iv administered as single dose 30 mins infusion
# Type: ADME, organism-based
# Set-up: dose 6 mg/kg, route intravenous
# details: in vivo
readoutName: Cmax (µg/mL)
Report the figure in µg/mL without appending any unit label.

QUERY: Request the reported Cmax associated with CCCCCCCCCC(=O)N[C@@H](Cc1c[nH]c2ccccc12)C(=O)N[C@H](CC(N)=O)C(=O)N[C@@H](CC(=O)O)C(=O)N[C@@H]1C(=O)NCC(=O)N[C@@H](CCCN)C(=O)N[C@@H](CC(=O)O)C(=O)N[C@H](C)C(=O)N[C@@H](CC(=O)O)C(=O)NCC(=O)N[C@H](CO)C(=O)N[C@@H]([C@H](C)CC(=O)O)C(=O)N[C@@H](CC(=O)c2ccccc2N)C(=O)O[C@@H]1C
RESULT: 118

====

# testMethodNotes: Drug excretion in moderately obese adult human urine assessed as unchanged drug at 4 mg/kg, iv administered as single dose 30 mins infusion
# Format: ADME, organism-based
# Set-up: dose 4 mg/kg, route intravenous
# details: read-out: Drug uptake
readoutName: dose excreted at 0.5 h (%)
State just the number; it will be interpreted in %.

QUERY: Consider the compound shown here: CCCCCCCCCC(=O)N[C@@H](Cc1c[nH]c2ccccc12)C(=O)N[C@H](CC(N)=O)C(=O)N[C@@H](CC(=O)O)C(=O)N[C@@H]1C(=O)NCC(=O)N[C@@H](CCCN)C(=O)N[C@@H](CC(=O)O)C(=O)N[C@H](C)C(=O)N[C@@H](CC(=O)O)C(=O)NCC(=O)N[C@H](CO)C(=O)N[C@@H]([C@H](C)CC(=O)O)C(=O)N[C@@H](CC(=O)c2ccccc2N)C(=O)O[C@@H]1C What is its recorded dose excreted at 0.5 h?
RESULT: 51.8

====

# testMethodNotes: Renal clearance in nonobese adult human at 4 mg/kg, iv administered as single dose 30 mins infusion
# Assay type: ADME, organism-based, Kidney
# Parameters: dose 4 mg/kg, route intravenous
# details: in vivo, read-out: CL_renal (converted)
readoutName: CL renal at 0.5 h (mL/min/kg)
Provide the reading as a plain figure in mL/min/kg.

QUERY: Any idea what CL renal at 0.5 h was measured for CCCCCCCCCC(=O)N[C@@H](Cc1c[nH]c2ccccc12)C(=O)N[C@H](CC(N)=O)C(=O)N[C@@H](CC(=O)O)C(=O)N[C@@H]1C(=O)NCC(=O)N[C@@H](CCCN)C(=O)N[C@@H](CC(=O)O)C(=O)N[C@H](C)C(=O)N[C@@H](CC(=O)O)C(=O)NCC(=O)N[C@H](CO)C(=O)N[C@@H]([C@H](C)CC(=O)O)C(=O)N[C@@H](CC(=O)c2ccccc2N)C(=O)O[C@@H]1C ?
RESULT: 0.139

====

# testMethodNotes: Cmax in healthy human subjects at 12 mg/kg, iv administered as 30 mins infusion every 24 hrs measured on day 14
# Format: ADME, organism-based
# Design: dose 12 mg/kg, route intravenous
# details: in vivo
readoutName: Cmax (µg/mL)
Response body: numeric value in µg/mL, unit text excluded.

QUERY: Give the measured Cmax of CCCCCCCCCC(=O)N[C@@H](Cc1c[nH]c2ccccc12)C(=O)N[C@H](CC(N)=O)C(=O)N[C@@H](CC(=O)O)C(=O)N[C@@H]1C(=O)NCC(=O)N[C@@H](CCCN)C(=O)N[C@@H](CC(=O)O)C(=O)N[C@H](C)C(=O)N[C@@H](CC(=O)O)C(=O)NCC(=O)N[C@H](CO)C(=O)N[C@@H]([C@H](C)CC(=O)O)C(=O)N[C@@H](CC(=O)c2ccccc2N)C(=O)O[C@@H]1C .
RESULT: 182

====

# testMethodNotes: Cmax in healthy human at 4 mg/kg, iv administered as 30 mins infusion every 24 hrs measured on day 7
# Assay type: ADME, organism-based
# Parameters: dose 4 mg/kg, route intravenous
# details: in vivo
readoutName: Cmax (µg/mL)
Only the number, expressed in µg/mL, is required.

QUERY: What value of measured Cmax is listed for CCCCCCCCCC(=O)N[C@@H](Cc1c[nH]c2ccccc12)C(=O)N[C@H](CC(N)=O)C(=O)N[C@@H](CC(=O)O)C(=O)N[C@@H]1C(=O)NCC(=O)N[C@@H](CCCN)C(=O)N[C@@H](CC(=O)O)C(=O)N[C@H](C)C(=O)N[C@@H](CC(=O)O)C(=O)NCC(=O)N[C@H](CO)C(=O)N[C@@H]([C@H](C)CC(=O)O)C(=O)N[C@@H](CC(=O)c2ccccc2N)C(=O)O[C@@H]1C ?
RESULT: 57.8

====

# testMethodNotes: Plasma protein binding in human after 8 hrs
# Format: ADME, cell-free
# details: read-out: PPB (converted)
readoutName: fraction unbound at 8 h

QUERY: Entry CCCCCCCCCC(=O)N[C@@H](Cc1c[nH]c2ccccc12)C(=O)N[C@H](CC(N)=O)C(=O)N[C@@H](CC(=O)O)C(=O)N[C@@H]1C(=O)NCC(=O)N[C@@H](CCCN)C(=O)N[C@@H](CC(=O)O)C(=O)N[C@H](C)C(=O)N[C@@H](CC(=O)O)C(=O)NCC(=O)N[C@H](CO)C(=O)N[C@@H]([C@H](C)CC(=O)O)C(=O)N[C@@H](CC(=O)c2ccccc2N)C(=O)O[C@@H]1C has what fraction unbound at 8 h?
RESULT: 0.068

====

# testMethodNotes: AUC (0 to infinity) in healthy human subjects at 12 mg/kg, iv administered as 30 mins infusion every 24 hrs measured on day 14
# Format: ADME, organism-based
# Design: time infinity, dose 12 mg/kg, route intravenous
# details: plasma
readoutName: AUC(0-inf) (µg·h/mL)
Provide only the numeric value, understood in µg·h/mL.

QUERY: Given the entry CCCCCCCCCC(=O)N[C@@H](Cc1c[nH]c2ccccc12)C(=O)N[C@H](CC(N)=O)C(=O)N[C@@H](CC(=O)O)C(=O)N[C@@H]1C(=O)NCC(=O)N[C@@H](CCCN)C(=O)N[C@@H](CC(=O)O)C(=O)N[C@H](C)C(=O)N[C@@H](CC(=O)O)C(=O)NCC(=O)N[C@H](CO)C(=O)N[C@@H]([C@H](C)CC(=O)O)C(=O)N[C@@H](CC(=O)c2ccccc2N)C(=O)O[C@@H]1C , report its measured AUC(0-inf).
RESULT: 1290

====

# testMethodNotes: Apparent volume of distribution during terminal phase in healthy human subjects at 6 mg/kg, iv administered as 30 mins infusion every 24 hrs measured on day 4
# Type: ADME, organism-based
# Set-up: dose 6 mg/kg, route intravenous
# details: in vivo
readoutName: Vd (L/kg)
The reply should contain only the number, in L/kg.

QUERY: What value of Vd has been reported for the following molecule? CCCCCCCCCC(=O)N[C@@H](Cc1c[nH]c2ccccc12)C(=O)N[C@H](CC(N)=O)C(=O)N[C@@H](CC(=O)O)C(=O)N[C@@H]1C(=O)NCC(=O)N[C@@H](CCCN)C(=O)N[C@@H](CC(=O)O)C(=O)N[C@H](C)C(=O)N[C@@H](CC(=O)O)C(=O)NCC(=O)N[C@H](CO)C(=O)N[C@@H]([C@H](C)CC(=O)O)C(=O)N[C@@H](CC(=O)c2ccccc2N)C(=O)O[C@@H]1C
RESULT: 0.101
